Reference source: paper PMC8944867

# target_under_test: T1, IpaH1.4 LRR domain (S. flexneri, UniProt A0A0H2USG1 38-283)
# T1 sequence: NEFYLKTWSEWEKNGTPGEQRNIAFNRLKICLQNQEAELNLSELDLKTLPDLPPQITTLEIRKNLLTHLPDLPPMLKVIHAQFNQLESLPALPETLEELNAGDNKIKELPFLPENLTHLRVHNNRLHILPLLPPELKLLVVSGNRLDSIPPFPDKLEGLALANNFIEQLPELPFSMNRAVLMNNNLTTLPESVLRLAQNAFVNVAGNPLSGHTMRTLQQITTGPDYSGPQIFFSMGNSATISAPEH
# protocol_description: ITC
pKd: −log10 of the molar value.
measurement_label: pKd

1. HOIL-1L UBL domain (domain or fragment) QDIRLWVSVEDAQMHTVTIWLTVRPDMTVASLKDMVFLDYGFPPVLQQWVIGQRLARDQETLHSHGVRQNGDSAYLYLLSARN: 4.97
